Entries and their pIC50
molecular target: Nonstructural protein 3 (Zika virus); assay: Inhibition of Zika virus recombinant NS2B (47 to 95 residues)/NS3 (1 to 177 residues) protease expressed in Escherichia coli BL21 using Bz-Nle-Lys-Lys-Arg-AMC as substrate preincubated for 10 mins by fluorescence-based biochemical assay
Sequence (A0A024AXB9 whole entry, the tested form may be a part): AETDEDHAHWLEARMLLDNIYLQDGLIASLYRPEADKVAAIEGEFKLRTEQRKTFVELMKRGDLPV
pIC50: −log10 of the molar value.

molecule: O=C(NC1CCNCC1)c1cc2ccc(-c3ccncc3)cc2[nH]1
testedTarget: Nonstructural protein 3 (Zika virus)
operator: =
pIC50: 5.01
--
molecule: O=C(NCC1CCNCC1)c1cc2ccc(-c3cccnc3)cc2[nH]1
testedTarget: Nonstructural protein 3 (Zika virus)
operator: =
pIC50: 4.57
--
molecule: O=C(NCC1CCNCC1)c1cc2cc(-c3cccnc3)ccc2[nH]1
testedTarget: Nonstructural protein 3 (Zika virus)
operator: <
pIC50: 4.30
--
molecule: O=C(NCC1CCNCC1)c1c[nH]c2cc(-c3ccccc3F)ccc12
testedTarget: Nonstructural protein 3 (Zika virus)
operator: <
pIC50: 4.30
--
molecule: CC(C)(C)c1ccc(-c2cc3[nH]cc(C(=O)NC4CCNCC4)c3cc2-c2ccc(C(C)(C)C)cc2)cc1
testedTarget: Nonstructural protein 3 (Zika virus)
operator: =
pIC50: 5.35
--
molecule: O=C(NCC1CCNCC1)c1cc2ccccc2[nH]1
testedTarget: Nonstructural protein 3 (Zika virus)
operator: =
pIC50: 4.61
--
molecule: O=C(NCC1CCNCC1)c1c[nH]c2cc(-c3cn[nH]c3)ccc12
testedTarget: Nonstructural protein 3 (Zika virus)
operator: =
pIC50: 5.24
--
molecule: N#Cc1ccc(-c2ccc3[nH]c(C(=O)NCC4CCNCC4)cc3c2)cc1
testedTarget: Nonstructural protein 3 (Zika virus)
operator: =
pIC50: 5.04
--
molecule: O=C(NCC1CCNCC1)c1cc2cc(-c3ccc(N4CCOCC4)cc3)ccc2[nH]1
testedTarget: Nonstructural protein 3 (Zika virus)
operator: =
pIC50: 4.48
--
molecule: O=C(NCC1CCNCC1)c1cc2ccc(-c3ccc(Oc4ccccc4)cc3)cc2[nH]1
testedTarget: Nonstructural protein 3 (Zika virus)
operator: =
pIC50: 5.80
--
molecule: O=C(NCC1CCNCC1)c1cc2cc(-c3ccncc3)ccc2[nH]1
testedTarget: Nonstructural protein 3 (Zika virus)
operator: =
pIC50: 4.43
